Consider compounds characterized by their IC50 with cathepsin L (Homo sapiens).
Sequence (P07711 114-288 limits assumed): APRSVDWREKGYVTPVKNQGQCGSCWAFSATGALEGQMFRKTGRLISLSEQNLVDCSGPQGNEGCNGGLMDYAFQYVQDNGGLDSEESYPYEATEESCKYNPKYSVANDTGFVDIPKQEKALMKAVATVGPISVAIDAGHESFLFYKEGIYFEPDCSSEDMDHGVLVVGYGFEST
Sequence (P07711 292-333 limits assumed): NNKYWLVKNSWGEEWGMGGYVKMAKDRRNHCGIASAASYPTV
ENDPOINT: IC50 (nM)

CC(C)CC(CC[S+]([O-])c1ccc2ccccc2c1)C(=O)N[C@H](C=O)CC(C)C (stereo partly drawn) ... 3

A. CC(C)CC(CCSc1ccc2ccccc2c1)C(=O)N[C@H](C=O)CC(C)C (stereo partly drawn)
B. CC(C)C[C@@H](CCS(=O)(=O)c1ccc2ccccc2c1)C(=O)N[C@H](C=O)CC(C)C
// which entry has the larger IC50 value, A or B ? Answer by quoting the chosen item's label. B
(B: 32 nM, A: 8 nM)

----------
- TESTED SYSTEM: α-chymotrypsin (Bos taurus)
- Construct: purchased Sigma Chem. Co. C-3142
- ASSAY INFO: Inhibition of α-chymotrypsin (serine protease) activity
- Type: biochemical
- APPLIED CONDITIONS: 10 μM inhibitor; 0.03 mM SuccAla-Ala-Pro-Phe-AMC, pH 7.5; read-out: Chymotrypsin % I @ 10 μM
- Method: To evaluate inhibitory activity, stock solutions (40 times concentrated) of each compound to be tested were prepared in 100% anhydrous DMSO and 5 μL of each inhibitor preparation were aliquoted into each of three wells of a 96-well plate. […] Substrate hydrolysis was monitored every 5 minutes for a total of 30 minutes using a Fluoroskan II fluorescence plate reader. […]
ENDPOINT: inhibition at 10 µM (%)

Example entries and their recorded answers appear below.
CC(C)C[C@H](CCS(=O)(=O)c1ccc2ccccc2c1)C(=O)N[C@H](C=O)CC(C)C ... 11
CC(C)CC(CCSc1ccc2ccccc2c1)C(=O)N[C@H](C=O)CC(C)C (stereo partly shown) ... 11

a. CC(C)C[C@@H](CCS(=O)(=O)c1ccc2ccccc2c1)C(=O)N[C@H](C=O)CC(C)C
b. CC(C)CC(CC[S+]([O-])c1ccc2ccccc2c1)C(=O)N[C@H](C=O)CC(C)C (stereo partly shown)
Select one. Lower inhibition at 10 µM: a or b Answer by quoting the chosen item's label. a
(a: 12%, b: 18%)

----------
- TESTED SYSTEM: thrombin (Homo sapiens)
- Construct: purchased Sigma Chem. Co. T-7009
- ASSAY INFO: Inhibition of thrombin (serine protease) activity
- Type: biochemical
- APPLIED CONDITIONS: 10 μM inhibitor; 25 μM Bz-Phe-Val-Arg-AMC, pH 7.5; read-out: Thrombin % I @ 10 μM
ENDPOINT: inhibition at 10 µM (%)

Example entries and their recorded answers appear below.
CC(C)C[C@H](CCS(=O)(=O)c1ccc2ccccc2c1)C(=O)N[C@H](C=O)CC(C)C ... 1
CC(C)C[C@@H](CCS(=O)(=O)c1ccc2ccccc2c1)C(=O)N[C@H](C=O)CC(C)C ... 2

1. CC(C)CC(CC[S+]([O-])c1ccc2ccccc2c1)C(=O)N[C@H](C=O)CC(C)C (stereo partly shown)
2. CC(C)CC(CCSc1ccc2ccccc2c1)C(=O)N[C@H](C=O)CC(C)C (stereo partly shown)
Select one. Lower inhibition at 10 µM: 1 or 2 Answer by quoting the chosen item's label. 1

----------
pIC50: −log10 of the molar value.
Consider compounds characterized by their pIC50 with UniProt:P07858.
ENDPOINT: pIC50

I. CC(C)C[C@H](CCS(=O)(=O)c1ccc2ccccc2c1)C(=O)N[C@H](C=O)CC(C)C
II. CC(C)CC(CCSc1ccc2ccccc2c1)C(=O)N[C@H](C=O)CC(C)C (stereo partly drawn)
III. CC(C)C[C@@H](CCS(=O)(=O)c1ccc2ccccc2c1)C(=O)N[C@H](C=O)CC(C)C
Place the items in sequence of falling pIC50. Ranked list of labels, please, in the requested order. II, I, III
(II: 7.22, I: 6.82, III: 5.35)
